assay-system: Phosphatidylinositol 4-kinase type 2-alpha (Homo sapiens)
assay-name: qHTS for small molecular inhibitors of PI4K2A
study-conditions: purified PI4K2A, ADP-Glo luminescence, 1 h; at 76.9 µM
Hit rate of the full screen: of about 420,000 compounds, about 540 (0.13%) were called active. No stated cut-off is given here; in the data, active means activity change below about -50%; inconclusive means mostly about -30% to -49%; inactive means weaker than that. What follows is part of a selection rich in actives, with near analogues and random picks from the rest.
Just give me one of these, please: active, inactive

Task item: # lookup: test call for COc1ccc(-c2cc(=O)oc3cc(OC(C)C(=O)NCC4CCC(C(=O)O)CC4)ccc23)cc1 (stereo not given)
Reply: inactive

Task item: # lookup: test call for CCOC(=O)c1ccc(-c2ccc(/C=C(\C#N)C(=O)Nc3ccc(OCC)cc3)o2)cc1
Reply: inactive

Task item: # lookup: test call for NCC[C@H](O)C(=O)N[C@@H]1C[C@H](N)[C@@H](O[C@H]2O[C@H](CN)[C@@H](O)[C@H](O)[C@@H]2O)[C@H](O)[C@@H]1O[C@H]1O[C@H](CO)[C@@H](O)[C@H](N)[C@@H]1O
Reply: inactive

Task item: # lookup: test call for O=C(OCCN1CCOCC1)c1cccnc1Nc1cccc(C(F)(F)F)c1
Reply: inactive

Task item: # lookup: test call for Cc1ccc(-n2ncc3c(N4CCC(C(N)=O)CC4)ncnc32)cc1
Reply: inactive

----------
assay-system: Phosphatidylinositol 4-kinase type 2-alpha (Homo sapiens)
assay-name: qHTS for small molecular inhibitors of PI4K2A
study-conditions: purified PI4K2A, ADP-Glo luminescence, 1 h; at 76.9 µM
Screen size: about 420,000 compounds; about 540 (0.13%) were called active. Cut-off read from the data, not from the text of the source: active = activity change below about -50%; inconclusive = mostly about -30% to -49%; inactive = weaker than that. The sample as a whole holds a higher share of actives than the screen did.
Just give me one of these, please: 1 = active, 0 = inactive

>  <compound>
CCC(C)NC(=O)Cn1c(=O)n(-c2ccc(Cl)cc2)c(=O)c2c3c(sc21)CCCC3 (stereo not given)

>  <answer-label>
0

$$$$
>  <compound>
CCCC(=O)Nc1cc(C(=O)NCc2ccc(OC)cc2)ccc1S(=O)(=O)c1ccc(Cl)cc1

>  <answer-label>
0

$$$$

Task item: # lookup: test call for CC1=NN(c2ccc(Cl)c(C(=O)O)c2)C(=O)/C1=C/c1ccc(-c2ccccc2[N+](=O)[O-])o1
Reply: 1

Task item: # lookup: test call for CCOc1ccc(NC(=O)Cn2c(C)ccc(C#N)c2=O)cc1
Reply: 0

Task item: # lookup: test call for CCCn1c2ccccc2c2cnn(CC(=O)N(CC)c3cc(C)ccc3C)c(=O)c21
Reply: 0

Task item: # lookup: test call for CCOC(=O)c1c(C)[nH]c(C)c1S(=O)(=O)NCC(=O)NCc1cccc(C)c1
Reply: 0

Task item: # lookup: test call for COc1cccc(NC(=O)CN2C(=O)c3ccccc3Sc3ncccc32)c1
Reply: 0

Task item: # lookup: test call for COc1ccccc1N1CCN(C2C(=O)c3ccccc3N2C(C)=O)CC1 (stereo not given)
Reply: 0

Task item: # lookup: test call for Cc1ccc2onc(CC(=O)N3CCN(c4ccc(Cl)cc4)CC3)c2c1
Reply: 0

Task item: # lookup: test call for CCOc1ccccc1NC(=O)CN1CCN(S(=O)(=O)c2ccc(Br)cc2)CC1
Reply: 0
